Source listed as patent US7910582B2.

# Tmax annotations
assay: Pharmacokinetics and bioanalysis in the rat; assay type: in vivo, male Sprague Dawley Rats; conditions: male, Sprague Dawley, oral 10 mg/kg, citric acid salt, plasma
Numeric only. Scale: h

In [3]: df
Out[3]:
                                   compound  readout_value
0  CC(C)N1CCN(C(=O)c2ccc(CN3CCOCC3)cc2)CC1.O=C(O)CC(O)(CC(=O)O)C(=O)O [Comparative Example 1B]            1.5

[in] Tmax for O=C(O)CC(O)(CC(=O)O)C(=O)O.O=C(c1ccc(CN2CCSCC2)cc1)N1CCN(C2CCC2)CC1 [Comparative Example 5B] ?
[out] 0.38

[in] What do you get for CC(C)N1CCN(C(=O)c2ccc(CN3CCC(F)CC3)cc2)CC1.O=C(O)CC(O)(CC(=O)O)C(=O)O [Comparative Example 3B] ?
[out] 1.33

[in] Please do the same for O=C(O)CC(O)(CC(=O)O)C(=O)O.O=C(c1ccc(CN2CCC(F)CC2)cc1)N1CCN(C2CC2)CC1 [Example 2B] as well.
[out] 1.67

---

test: Pharmacokinetics and bioanalysis in the rat; format: in vivo, male Sprague Dawley Rats; details: compared with isopropyl / cyclobutyl analogs
value type: volume of distribution (Vd) relative to the comparative examples

In [3]: df
Out[3]:
                                   compound  readout_value
0  O=C(O)CC(O)(CC(=O)O)C(=O)O.O=C(c1ccc(CN2CCC(F)CC2)cc1)N1CCN(C2CC2)CC1       lower Vd
1  O=C(O)CC(O)(CC(=O)O)C(=O)O.O=C(c1ccc(CN2CCSCC2)cc1)N1CCN(C2CC2)CC1       lower Vd
2  O=C(O)CC(O)(CC(=O)O)C(=O)O.O=C(c1ccc(CN2CCOC(CO)C2)cc1)N1CCN(C2CC2)CC1 (stereo not shown)       lower Vd

---

biological target: Human H3 Receptor (Homo sapiens); construct: expressed in transfected cells; test: Cyclic AMP accumulation, SK-N-MC cells with reporter construct and human H3 receptor (pA2); type: cell-based; settings: pA2, average of results
Sequence (Q9Y5N1 whole entry): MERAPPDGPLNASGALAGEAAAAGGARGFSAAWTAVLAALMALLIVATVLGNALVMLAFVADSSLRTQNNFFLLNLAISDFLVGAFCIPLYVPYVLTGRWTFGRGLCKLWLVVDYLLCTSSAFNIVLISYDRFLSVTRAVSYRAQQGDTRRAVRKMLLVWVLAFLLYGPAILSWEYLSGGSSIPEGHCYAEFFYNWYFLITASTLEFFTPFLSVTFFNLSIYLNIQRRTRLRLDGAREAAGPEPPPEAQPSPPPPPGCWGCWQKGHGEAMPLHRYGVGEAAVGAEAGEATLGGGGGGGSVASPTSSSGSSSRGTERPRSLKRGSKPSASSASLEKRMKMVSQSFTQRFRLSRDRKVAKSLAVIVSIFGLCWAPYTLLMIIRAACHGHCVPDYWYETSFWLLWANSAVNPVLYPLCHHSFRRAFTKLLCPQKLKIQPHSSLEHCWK
Where a name gives a salt, the structure may show the parent alone.
Values of Kb strictly less than 0.3 nM map to 1, and values of at least 0.3 nM map to 0.

                                   compound  assigned_category
0  CC(C)N1CCN(C(=O)c2ccc(CN3CCOCC3)cc2)CC1 [Comparative Example 1]                  0
1  CC(C)N1CCN(C(=O)c2ccc(CN3CCC(F)CC3)cc2)CC1.O=C(O)CC(O)(CC(=O)O)C(=O)O [Comparative Example 3B, citrate salt]                  1
2  CC(C)N1CCN(C(=O)c2ccc(CN3CCOC(CO)C3)cc2)CC1 (centres unmarked) [Comparative Example 6]                  0
3  O=C(c1ccc(CN2CCOCC2)cc1)N1CCN(C2CCC2)CC1 [Comparative Example 2]                  0
4  O=C(c1ccc(CN2CCC(F)CC2)cc1)N1CCN(C2CCC2)CC1 [Comparative Example 4]                  1
5  O=C(O)CC(O)(CC(=O)O)C(=O)O.O=C(c1ccc(CN2CCC(F)CC2)cc1)N1CCN(C2CC2)CC1 [Example 2B, citrate salt]                  0
6  O=C(c1ccc(CN2CCOCC2)cc1)N1CCN(C2CC2)CC1 [Example 1]                  0

We next turn to a different compound, shown below.
[in] Strictly below 0.3 nM: is that where Kb of CC(C)N1CCN(C(=O)c2ccc(CN3CCOCC3)cc2)CC1 [Comparative Example 1A, dihydrochloride] sits?
[out] 0

---

experiment: Pharmacokinetics and bioanalysis in the rat; assay type: in vivo, male Sprague Dawley Rats; conditions: male, Sprague Dawley, iv, i.v. 1 mg/kg, citric acid salt, plasma, read-out: AUCINF (h-μmol/mL)
Each entry below carries its recorded AUC(0-inf).
Reply numerically in µM·h, unit not repeated.

Solved entries (count: 6):
>>> print(df.to_string())
                                   molecule  value_type  units_of_measure  readout_value
0  O=C(O)CC(O)(CC(=O)O)C(=O)O.O=C(c1ccc(CN2CCC(F)CC2)cc1)N1CCN(C2CCC2)CC1  AUC(0-inf)              µM·h           0.41
1  O=C(O)CC(O)(CC(=O)O)C(=O)O.O=C(c1ccc(CN2CCSCC2)cc1)N1CCN(C2CCC2)CC1  AUC(0-inf)              µM·h           0.42
2  O=C(O)CC(O)(CC(=O)O)C(=O)O.O=C(c1ccc(CN2CCOC(CO)C2)cc1)N1CCN(C2CC2)CC1 (stereo not shown)  AUC(0-inf)              µM·h           3.07
3  O=C(O)CC(O)(CC(=O)O)C(=O)O.O=C(c1ccc(CN2CCSCC2)cc1)N1CCN(C2CC2)CC1  AUC(0-inf)              µM·h           0.18
4  CC(C)N1CCN(C(=O)c2ccc(CN3CCOC(CO)C3)cc2)CC1 (stereo not shown)  AUC(0-inf)              µM·h           1.34
5  CC(C)N1CCN(C(=O)c2ccc(CN3CCC(F)CC3)cc2)CC1.O=C(O)CC(O)(CC(=O)O)C(=O)O  AUC(0-inf)              µM·h           1.16

Next up:
[in] // query AUC(0-inf) value for entry "O=C(O)CC(O)(CC(=O)O)C(=O)O.O=C(c1ccc(CN2CCC(F)CC2)cc1)N1CCN(C2CC2)CC1"
[out] 1.37

---

Property: Cmax; scope: individual molecules
test: Pharmacokinetics and bioanalysis in the rat; assay type: in vivo, male Sprague Dawley Rats; conditions: male, Sprague Dawley, iv, i.v. 1 mg/kg, citric acid salt, plasma
Give the number; nM is assumed, so skip it.

Sample records with Cmax:
In [3]: df
Out[3]:
                                   molecule  units_of_measure  readout_value
0  O=C(O)CC(O)(CC(=O)O)C(=O)O.O=C(c1ccc(CN2CCC(F)CC2)cc1)N1CCN(C2CC2)CC1                nM           3780
1  O=C(O)CC(O)(CC(=O)O)C(=O)O.O=C(c1ccc(CN2CCOC(CO)C2)cc1)N1CCN(C2CC2)CC1 (stereo not shown)                nM           2920
2  O=C(O)CC(O)(CC(=O)O)C(=O)O.O=C(c1ccc(CN2CCSCC2)cc1)N1CCN(C2CC2)CC1                nM            860
3  O=C(O)CC(O)(CC(=O)O)C(=O)O.O=C(c1ccc(CN2CCSCC2)cc1)N1CCN(C2CCC2)CC1                nM           2680
4  CC(C)N1CCN(C(=O)c2ccc(CN3CCC(F)CC3)cc2)CC1.O=C(O)CC(O)(CC(=O)O)C(=O)O                nM           1490
5  O=C(O)CC(O)(CC(=O)O)C(=O)O.O=C(c1ccc(CN2CCC(F)CC2)cc1)N1CCN(C2CCC2)CC1                nM            460

Switching to the query record.
[in] Which Cmax value is on record for CC(C)N1CCN(C(=O)c2ccc(CN3CCOC(CO)C3)cc2)CC1 (stereo not shown) ?
[out] 1410

---

Listed below: pKi values for each entry.
Target: Human H3 Receptor (Homo sapiens)
Construct: expressed in transfected cells
Assay: [3H]-N-Methylhistamine binding, membranes of H3 receptor-expressing SK-N-MC cells
Conditions: 0.8 nM [3H]-N-methylhistamine, 60 min at 25° C., average of results; read-out: Ki
Experimental: Cells were grown to about 70% to 80% confluence and removed from the plate with trypsin and pelleted in a clinical centrifuge. […] Cell pellets from histamine H3 receptor-expressing SK-N-MC cells were homogenized in 50 mM TrisHCl/0.5 mM EDTA. […] Filters were added to 5 mL of scintillation cocktail, and the signal was then counted on a liquid scintillation counter.
Where a name gives a salt, the structure may show the parent alone.
# pKi: negative log10 of molar concentration; output just the value

>>> print(df.to_string())
                                   compound  readout_value
0  CC(C)N1CCN(C(=O)c2ccc(CN3CCOC(CO)C3)cc2)CC1 (stereo not drawn) [Comparative Example 6B]           8.30
1  CC(C)N1CCN(C(=O)c2ccc(CN3CCOC(CO)C3)cc2)CC1 (stereo not drawn) [Comparative Example 6]           8.22
2  O=C(c1ccc(CN2CCOC(CO)C2)cc1)N1CCN(C2CC2)CC1 (stereo not drawn)           8.22
3  O=C(c1ccc(CN2CCOCC2)cc1)N1CCN(C2CCC2)CC1 [Comparative Example 2A, dihydrochloride]           8.77
4  O=C(c1ccc(CN2CCC(F)CC2)cc1)N1CCN(C2CCC2)CC1           9.15

[in] Value lookup for pKi; key = "O=C(c1ccc(CN2CCSCC2)cc1)N1CCN(C2CC2)CC1"
[out] 8.60

[in] Same read-out for O=C(O)CC(O)(CC(=O)O)C(=O)O.O=C(c1ccc(CN2CCC(F)CC2)cc1)N1CCN(C2CC2)CC1 [Example 2B, citrate salt] ?
[out] 8.70

[in] // same read-out, input: O=C(O)CC(O)(CC(=O)O)C(=O)O.O=C(c1ccc(CN2CCOCC2)cc1)N1CCN(C2CCC2)CC1 [Comparative Example 2B, citrate salt]
[out] 8.70

[in] Now try O=C(O)CC(O)(CC(=O)O)C(=O)O.O=C(c1ccc(CN2CCOC(CO)C2)cc1)N1CCN(C2CC2)CC1 (stereo not drawn) [Example 4B, citrate salt] .
[out] 7.64
